Entries with their measured Ki, system Glutathione reductase, mitochondrial (Homo sapiens, UniProt P00390):
Answer format: numeric, µM implied, no suffix.

For Glutathione reductase, mitochondrial (Homo sapiens, UniProt P00390), give Ki of the listed compound: `CC[C@H](CO)NCc1ccc([N+](=O)[O-])cc1`
4.57

Given `O=[N+]([O-])c1ccccc1` , report its Ki on Glutathione reductase, mitochondrial (Homo sapiens, UniProt P00390).
274

Lab note: Glutathione reductase, mitochondrial (Homo sapiens, UniProt P00390) assay, enter Ki for `NCCCC[C@H](N)C(=O)O` here
54.6

###

# targetUnderTest: UniProtKB P00390
# Sequence (P00390 whole entry): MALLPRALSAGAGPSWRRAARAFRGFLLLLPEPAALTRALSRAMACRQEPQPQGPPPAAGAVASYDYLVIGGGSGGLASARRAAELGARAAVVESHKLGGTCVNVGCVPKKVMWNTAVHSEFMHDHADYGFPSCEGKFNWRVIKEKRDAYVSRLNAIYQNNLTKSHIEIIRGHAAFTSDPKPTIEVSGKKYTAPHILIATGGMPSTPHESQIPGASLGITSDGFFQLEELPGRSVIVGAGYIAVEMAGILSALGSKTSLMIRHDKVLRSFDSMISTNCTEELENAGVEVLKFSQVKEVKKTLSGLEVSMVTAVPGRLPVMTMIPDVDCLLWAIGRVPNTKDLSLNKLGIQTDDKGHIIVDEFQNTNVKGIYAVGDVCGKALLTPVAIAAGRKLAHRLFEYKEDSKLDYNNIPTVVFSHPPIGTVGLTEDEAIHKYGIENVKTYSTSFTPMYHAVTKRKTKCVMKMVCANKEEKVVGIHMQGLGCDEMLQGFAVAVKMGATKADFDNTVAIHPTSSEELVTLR
The threshold is 60 µM. Values of IC50 beneath it are tagged 1.0; values meeting or exceeding it are tagged 0.0.

Below, 3 compounds whose answers are already recorded.
| recordSmiles | targetUnderTest | qualitativeLabel |
| --- | --- | --- |
| COC(=O)C1=C(C)NC(C)=C(C(=O)OC)C1c1ccccc1[N+](=O)[O-] | UniProtKB P00390 | 1.0 |
| O=C(O)CC[C@H](NC(=O)c1ccc([N+](=O)[O-])cc1)C(=O)O | UniProtKB P00390 | 1.0 |
| O=[N+]([O-])c1ccccc1 | UniProtKB P00390 | 0.0 |

As a next step, examine the compound that follows.
Does the reported IC50 of the following compound sit strictly below 60 µM? `N[C@@H](CCC(=O)O)C(=O)O`
1.0
